- Tested on: 186277-243-T-J2-PDC complex spheroid viability
- protocol.text: Anticancer human tumor 186277-243-T-J2-PDC patient-derived colon adenocarcinoma cell line growth inhibition [GQUAD]
- details: second compound 1 µM; first compound 3.16 µM; active compounds read low
measured.attribute: viability, T/C (%)
Write the number in % without appending the unit.

// worked examples, viability, T/C included
COc1cccc2c1C(=O)c1c(O)c3c(c(O)c1C2=O)CC(O)(C(=O)CO)CC3OC1CC(N)C(O)C(C)O1 (stereo not given) + Cc1[nH]c2ccc(F)cc2c1-c1nc2c3cccnc3c3ncccc3c2[nH]1    0.77
Cc1cccc(N(C)C(=O)C2C(O)CCN2c2nc(C)cc(C(F)(F)F)c2C#N)c1 (stereo not given) + Cc1[nH]c2ccc(F)cc2c1-c1nc2c3cccnc3c3ncccc3c2[nH]1    97
CC(C)(O)C1CCC(Nc2ccc3ncc(-c4cccc(C(F)(F)F)c4)n3n2)CC1 (stereo not given) + Cc1cnc(CNC(=O)c2c(=O)c3ccc(N4CCCN(C)CC4)nc3n3c2sc2ccccc23)cn1    24.2
C=CCn1c(=O)c2cnc(Nc3ccc(N4CCN(C)CC4)cc3)nc2n1-c1cccc(C(C)(C)O)n1 + CN(C)c1ccc(Nc2c3ccc(NC(=O)CCN4CCCC4)cc3nc3cc(NC(=O)CCN4CCCC4)ccc23)cc1    9.39

Now consider the entry below.
stdin: Return reported viability, T/C. Input compound: CC1COCCN1c1cc(C2(O)CC3CCC(C2)O3)c2cnn(-c3ccn[nH]3)c2n1 (stereo not given) + CN(C)c1ccc(Nc2c3ccc(NC(=O)CCN4CCCC4)cc3nc3cc(NC(=O)CCN4CCCC4)ccc23)cc1
stdout: 5.22

###

- System: 186277-243-T-J2-PDC complex spheroid viability
- protocol.text: Anticancer human tumor 186277-243-T-J2-PDC cell line growth inhibition [GQUAD]; active means viability on the fitted dose curve at most 10% of control; inactive means the rest;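 also: spheroids exposed to drugs for 7 days; 100% = DMSO vehicle control viability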
- details: second compound 10 µM; first compound 1 µM
# output must be one of Y = active, N = inactive

stdin: Tell me the recorded outcome of this test for O=C(NO)c1cnc(N2CCN(S(=O)(=O)c3ccc4ccccc4c3)CC2)nc1 + CN(C)c1ccc(Nc2c3ccc(NC(=O)CCN4CCCC4)cc3nc3cc(NC(=O)CCN4CCCC4)ccc23)cc1 .
stdout: Y

stdin: Tell me the recorded outcome of this test for COc1cccc2c1C(=O)c1c(O)c3c(c(O)c1C2=O)CC(O)(C(=O)CO)CC3OC1CC(N)C(O)C(C)O1 (stereo not given) + Cc1cnc(CNC(=O)c2c(=O)c3ccc(N4CCCN(C)CC4)nc3n3c2sc2ccccc23)cn1 .
stdout: N

stdin: Tell me the recorded outcome of this test for CC(C)(O)C1CCC(Nc2ccc3ncc(-c4cccc(C(F)(F)F)c4)n3n2)CC1 (stereo not given) + CN(C)c1ccc(Nc2c3ccc(NC(=O)CCN4CCCC4)cc3nc3cc(NC(=O)CCN4CCCC4)ccc23)cc1 .
stdout: N

stdin: Tell me the recorded outcome of this test for Cc1cccc(N(C)C(=O)C2C(O)CCN2c2nc(C)cc(C(F)(F)F)c2C#N)c1 (stereo not given) + CN(C)c1ccc(Nc2c3ccc(NC(=O)CCN4CCCC4)cc3nc3cc(NC(=O)CCN4CCCC4)ccc23)cc1 .
stdout: N

stdin: Tell me the recorded outcome of this test for CC(=O)O[C@H]1C(=O)[C@@]2(C)[C@H]([C@H](OC(=O)c3ccccc3)[C@]3(O)C[C@H](OC(=O)[C@H](O)[C@@H](NC(=O)c4ccccc4)c4ccccc4)C(C)=C1C3(C)C)[C@]1(OC(C)=O)CO[C@@H]1C[C@@H]2O + Cc1cnc(CNC(=O)c2c(=O)c3ccc(N4CCCN(C)CC4)nc3n3c2sc2ccccc23)cn1 .
stdout: N

###

- System: 186277-243-T-J2-PDC complex spheroid viability
- protocol.text: Anticancer human tumor 186277-243-T-J2-PDC cell line growth inhibition [GQUAD];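 also: spheroids exposed to drugs for 7 days; 100% = DMSO vehicle control viability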
- details: second compound 0.316 µM; first compound 0.1 µM; active compounds read low
measured.attribute: viability, T/C (%)
Write the number in % without appending the unit.

stdin: Return reported viability, T/C. Input compound: COc1ccc([C@@H](O)c2cc(-c3ncnc4cc(N5CCOCC5)ccc34)c(F)cc2Cl)nn1 + Cc1cnc(CNC(=O)c2c(=O)c3ccc(N4CCCN(C)CC4)nc3n3c2sc2ccccc23)cn1
stdout: 67

stdin: Return reported viability, T/C. Input compound: COc1cccc2c1C(=O)c1c(O)c3c(c(O)c1C2=O)CC(O)(C(=O)CO)CC3OC1CC(N)C(O)C(C)O1 (stereo not drawn) + Cc1[nH]c2ccc(F)cc2c1-c1nc2c3cccnc3c3ncccc3c2[nH]1
stdout: 116

stdin: Return reported viability, T/C. Input compound: CC1COCCN1c1cc(C2(S(C)(=N)=O)CC2)nc(-c2ccnc3[nH]ccc23)n1 (stereo not drawn) + Cc1[nH]c2ccc(F)cc2c1-c1nc2c3cccnc3c3ncccc3c2[nH]1
stdout: 89.4

###

- System: 186277-243-T-J2-PDC complex spheroid viability
- protocol.text: Anticancer human tumor 186277-243-T-J2-PDC cell line growth inhibition [GQUAD]; active = viability on the fitted dose curve at most 10% of control; inactive = the rest;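 also: spheroids exposed to drugs for 7 days; 100% = DMSO vehicle control viability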
- details: second compound 0.316 µM; first compound 10 µM
# output must be one of y for active, n for inactive

# count of solved cases: 5
Nc1ccn(C2OC(CO)C(O)C2(F)F)c(=O)n1 (stereo unspecified) + Cc1[nH]c2ccc(F)cc2c1-c1nc2c3cccnc3c3ncccc3c2[nH]1    n
O=C(c1cc(Cc2n[nH]c(=O)c3ccccc23)ccc1F)N1CCN(C(=O)C2CC2)CC1 + Cc1cnc(CNC(=O)c2c(=O)c3ccc(N4CCCN(C)CC4)nc3n3c2sc2ccccc23)cn1    n
COc1cc(C2c3cc4c(cc3C(OC3OC5COC(C)OC5C(O)C3O)C3COC(=O)C23)OCO4)cc(OC)c1O (stereo unspecified) + CN(C)c1ccc(Nc2c3ccc(NC(=O)CCN4CCCC4)cc3nc3cc(NC(=O)CCN4CCCC4)ccc23)cc1    n
CC(=O)O[C@H]1C(=O)[C@@]2(C)[C@H]([C@H](OC(=O)c3ccccc3)[C@]3(O)C[C@H](OC(=O)[C@H](O)[C@@H](NC(=O)c4ccccc4)c4ccccc4)C(C)=C1C3(C)C)[C@]1(OC(C)=O)CO[C@@H]1C[C@@H]2O + Cc1[nH]c2ccc(F)cc2c1-c1nc2c3cccnc3c3ncccc3c2[nH]1    y
O=c1[nH]cc(F)c(=O)[nH]1 + Cc1cnc(CNC(=O)c2c(=O)c3ccc(N4CCCN(C)CC4)nc3n3c2sc2ccccc23)cn1    n

stdin: Tell me the recorded outcome of this test for O=C(c1cc(Cc2n[nH]c(=O)c3ccccc23)ccc1F)N1CCN(C(=O)C2CC2)CC1 + Cc1[nH]c2ccc(F)cc2c1-c1nc2c3cccnc3c3ncccc3c2[nH]1 .
stdout: n

stdin: Tell me the recorded outcome of this test for COc1cc(C2c3cc4c(cc3C(OC3OC5COC(C)OC5C(O)C3O)C3COC(=O)C23)OCO4)cc(OC)c1O (stereo unspecified) + Cc1cnc(CNC(=O)c2c(=O)c3ccc(N4CCCN(C)CC4)nc3n3c2sc2ccccc23)cn1 .
stdout: n

###

The following molecules are listed with their measured viability, T/C values.
- Tested on: 186277-243-T-J2-PDC complex spheroid viability
- protocol.text: Anticancer human tumor 186277-243-T-J2-PDC cell line growth inhibition [GQUAD];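 also: spheroids exposed to drugs for 7 days; 100% = DMSO vehicle control viability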
- details: second compound 1 µM; first compound 3.16 µM; active compounds read low
Write the number in % without appending the unit.

stdin: Return reported viability, T/C. Input molecule: CC1COCCN1c1cc(C2(S(C)(=N)=O)CC2)nc(-c2ccnc3[nH]ccc23)n1 (configuration not stated) + Cc1[nH]c2ccc(F)cc2c1-c1nc2c3cccnc3c3ncccc3c2[nH]1
stdout: 15

stdin: Return reported viability, T/C. Input molecule: CC(=O)O[C@H]1C(=O)[C@@]2(C)[C@H]([C@H](OC(=O)c3ccccc3)[C@]3(O)C[C@H](OC(=O)[C@H](O)[C@@H](NC(=O)c4ccccc4)c4ccccc4)C(C)=C1C3(C)C)[C@]1(OC(C)=O)CO[C@@H]1C[C@@H]2O + Cc1cnc(CNC(=O)c2c(=O)c3ccc(N4CCCN(C)CC4)nc3n3c2sc2ccccc23)cn1
stdout: 23.8

###

- Tested on: 186277-243-T-J2-PDC complex spheroid viability
- protocol.text: Anticancer human tumor 186277-243-T-J2-PDC cell line growth inhibition [GQUAD];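 also: spheroids exposed to drugs for 7 days; 100% = DMSO vehicle control viability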
- details: second compound 0.316 µM; first compound 1 µM; active compounds read low
# strict inequality: viability, T/C < 90% yields Met, everything else yields Not met

stdin: Strictly below 90% in viability, T/C? COc1ccc([C@@H](O)c2cc(-c3ncnc4cc(N5CCOCC5)ccc34)c(F)cc2Cl)nn1 + CN(C)c1ccc(Nc2c3ccc(NC(=O)CCN4CCCC4)cc3nc3cc(NC(=O)CCN4CCCC4)ccc23)cc1
stdout: Met

stdin: Strictly below 90% in viability, T/C? CC1COCCN1c1cc(C2(S(C)(=N)=O)CC2)nc(-c2ccnc3[nH]ccc23)n1 (stereo not given) + Cc1cnc(CNC(=O)c2c(=O)c3ccc(N4CCCN(C)CC4)nc3n3c2sc2ccccc23)cn1
stdout: Met

stdin: Strictly below 90% in viability, T/C? COc1ccc([C@@H](O)c2cc(-c3ncnc4cc(N5CCOCC5)ccc34)c(F)cc2Cl)nn1 + Cc1[nH]c2ccc(F)cc2c1-c1nc2c3cccnc3c3ncccc3c2[nH]1
stdout: Not met
